Experiment: Monitoring of the plasma concentration of the main oligosaccharides of a VLMWH in human volunteers (plasma filtration + anion-exchange HPLC)
Type: in vivo
Condition set: 1.5 h after administration of VLMWH (2500 Da) 1.4 mg/kg
Measurement kind: plasma concentration
Just so you know, I need the unit written after the number.

Record excerpt, results attached:
O=C(O)C1=CC(O)C(OS(=O)(=O)O)C(OC2C(COS(=O)(=O)O)OC(OC3C(C(=O)O)OC(OC4C(COS(=O)(=O)O)OC(OC5C(C(=O)O)OC(OC6C(COS(=O)(=O)O)OC(O)C(NS(=O)(=O)O)C6O)C(OS(=O)(=O)O)C5O)C(NS(=O)(=O)O)C4O)C(OS(=O)(=O)O)C3O)C(NS(=O)(=O)O)C2O)O1 (centres unmarked) : 0.03 µM
CC(=O)NC1C(OC2C(C(=O)O)OC(OC3C(COS(=O)(=O)O)OC(OC4C(C(=O)O)OC(OC5C(COS(=O)(=O)O)OC(OC6C(C(=O)O)OC(OC7C(COS(=O)(=O)O)OC(O)C(NS(=O)(=O)O)C7O)C(OS(=O)(=O)O)C6O)C(NS(=O)(=O)O)C5O)C(OS(=O)(=O)O)C4O)C(NS(=O)(=O)O)C3OS(=O)(=O)O)C(O)C2O)OC(COS(=O)(=O)O)C(OC2OC(C(=O)O)=CC(O)C2O)C1O (centres unmarked) : 0.04 µM
O=C(O)C1=CC(O)C(OS(=O)(=O)O)C(OC2C(COS(=O)(=O)O)OC(OC3C(C(=O)O)OC(OC4C(COS(=O)(=O)O)OC(O)C(NS(=O)(=O)O)C4O)C(OS(=O)(=O)O)C3O)C(NS(=O)(=O)O)C2O)O1 (centres unmarked) : 0.19 µM

Would you mind giving plasma concentration for every compound in the list below?
1. O=C(O)C1=CC(O)C(OS(=O)(=O)O)C(OC2C(COS(=O)(=O)O)OC(O)C(NS(=O)(=O)O)C2O)O1 (centres unmarked)
2. CC(=O)NC1C(OC2C(C(=O)O)OC(OC3C(COS(=O)(=O)O)OC(OC4C(C(=O)O)OC(OC5C(COS(=O)(=O)O)OC(O)C(NS(=O)(=O)O)C5O)C(OS(=O)(=O)O)C4O)C(NS(=O)(=O)O)C3OS(=O)(=O)O)C(O)C2O)OC(COS(=O)(=O)O)C(OC2OC(C(=O)O)=CC(O)C2O)C1O (centres unmarked)

Resp:
1. 0.19 µM
2. 0.11 µM

----------
Experiment: Monitoring of the plasma concentration of the main oligosaccharides of a VLMWH in human volunteers (plasma filtration + anion-exchange HPLC)
Format: in vivo
Condition set: 10 h after administration of VLMWH (2500 Da) 1.4 mg/kg
Record form. Attribute: plasma concentration. Fill in for each entry.
Answers are plain numbers, in nM.

O=C(O)C1=CC(O)C(OS(=O)(=O)O)C(OC2C(COS(=O)(=O)O)OC(OC3C(C(=O)O)OC(OC4C(COS(=O)(=O)O)OC(O)C(NS(=O)(=O)O)C4O)C(OS(=O)(=O)O)C3O)C(NS(=O)(=O)O)C2O)O1 (centres unmarked) [ΔIsIs] : 10

Field: next compound
Record CC(=O)NC1C(OC2C(C(=O)O)OC(OC3C(COS(=O)(=O)O)OC(OC4C(C(=O)O)OC(OC5C(COS(=O)(=O)O)OC(O)C(NS(=O)(=O)O)C5O)C(OS(=O)(=O)O)C4O)C(NS(=O)(=O)O)C3OS(=O)(=O)O)C(O)C2O)OC(COS(=O)(=O)O)C(OC2OC(C(=O)O)=CC(O)C2O)C1O (centres unmarked) [ΔIIaIIsIs] , field plasma concentration: 70

----------
Record form. Attribute: plasma concentration. Fill in for each entry.
Experiment: Monitoring of the plasma concentration of the main oligosaccharides of a VLMWH in human volunteers (plasma filtration + anion-exchange HPLC)
Type: in vivo
Condition set: 8 h after administration of VLMWH (2500 Da) 1.4 mg/kg
Numbers only, in nM.

Record excerpt, results attached:
O=C(O)C1=CC(O)C(OS(=O)(=O)O)C(OC2C(COS(=O)(=O)O)OC(O)C(NS(=O)(=O)O)C2O)O1 (stereo not drawn) : 20
CC(=O)NC1C(OC2C(C(=O)O)OC(OC3C(COS(=O)(=O)O)OC(OC4C(C(=O)O)OC(OC5C(COS(=O)(=O)O)OC(O)C(NS(=O)(=O)O)C5O)C(OS(=O)(=O)O)C4O)C(NS(=O)(=O)O)C3OS(=O)(=O)O)C(O)C2O)OC(COS(=O)(=O)O)C(OC2OC(C(=O)O)=CC(O)C2O)C1O (stereo not drawn) : 70

Field: next compound
Record CC(=O)NC1C(OC2C(C(=O)O)OC(OC3C(COS(=O)(=O)O)OC(OC4C(C(=O)O)OC(OC5C(COS(=O)(=O)O)OC(OC6C(C(=O)O)OC(OC7C(COS(=O)(=O)O)OC(O)C(NS(=O)(=O)O)C7O)C(OS(=O)(=O)O)C6O)C(NS(=O)(=O)O)C5O)C(OS(=O)(=O)O)C4O)C(NS(=O)(=O)O)C3OS(=O)(=O)O)C(O)C2O)OC(COS(=O)(=O)O)C(OC2OC(C(=O)O)=CC(O)C2O)C1O (stereo not drawn) , field plasma concentration: 20

----------
Experiment: Monitoring of the plasma concentration of the main oligosaccharides of a VLMWH in human volunteers (plasma filtration + anion-exchange HPLC)
Format: in vivo
Condition set: 1 h after administration of VLMWH (2500 Da) 1.4 mg/kg
Measurement kind: plasma concentration (nM)
Numbers only, in nM.

O=C(O)C1=CC(O)C(OS(=O)(=O)O)C(OC2C(COS(=O)(=O)O)OC(O)C(NS(=O)(=O)O)C2O)O1 (centres unmarked) : 230

Would you mind giving plasma concentration for every compound in the list below?
1. O=C(O)C1=CC(O)C(OS(=O)(=O)O)C(OC2C(COS(=O)(=O)O)OC(OC3C(C(=O)O)OC(OC4C(COS(=O)(=O)O)OC(OC5C(C(=O)O)OC(OC6C(COS(=O)(=O)O)OC(O)C(NS(=O)(=O)O)C6O)C(OS(=O)(=O)O)C5O)C(NS(=O)(=O)O)C4O)C(OS(=O)(=O)O)C3O)C(NS(=O)(=O)O)C2O)O1 (centres unmarked)
2. CC(=O)NC1C(OC2C(C(=O)O)OC(OC3C(COS(=O)(=O)O)OC(OC4C(C(=O)O)OC(OC5C(COS(=O)(=O)O)OC(OC6C(C(=O)O)OC(OC7C(COS(=O)(=O)O)OC(O)C(NS(=O)(=O)O)C7O)C(OS(=O)(=O)O)C6O)C(NS(=O)(=O)O)C5O)C(OS(=O)(=O)O)C4O)C(NS(=O)(=O)O)C3OS(=O)(=O)O)C(O)C2O)OC(COS(=O)(=O)O)C(OC2OC(C(=O)O)=CC(O)C2O)C1O (centres unmarked)
3. CC(=O)NC1C(OC2C(C(=O)O)OC(OC3C(COS(=O)(=O)O)OC(OC4C(C(=O)O)OC(OC5C(COS(=O)(=O)O)OC(O)C(NS(=O)(=O)O)C5O)C(OS(=O)(=O)O)C4O)C(NS(=O)(=O)O)C3OS(=O)(=O)O)C(O)C2O)OC(COS(=O)(=O)O)C(OC2OC(C(=O)O)=CC(O)C2O)C1O (centres unmarked)

Resp:
40
30
100

Record O=C(O)C1=CC(O)C(OS(=O)(=O)O)C(OC2C(COS(=O)(=O)O)OC(OC3C(C(=O)O)OC(OC4C(COS(=O)(=O)O)OC(O)C(NS(=O)(=O)O)C4O)C(OS(=O)(=O)O)C3O)C(NS(=O)(=O)O)C2O)O1 (centres unmarked) , field plasma concentration: 200

----------
Experiment: Monitoring of the plasma concentration of the main oligosaccharides of a VLMWH in human volunteers (plasma filtration + anion-exchange HPLC)
Format: in vivo
Condition set: 10 h after administration of VLMWH (2500 Da) 1.4 mg/kg
Protocol: A plasma sample with a volume of between 100 and 1000 μl is withdrawn and, if appropriate, the internal standard is added to the latter. After homogenization, the resulting solution is introduced into a 30 kD Ultrafree 05 ultrafiltration cartridge (Millipore) rinsed beforehand with 250 μl of water by centrifuging at 10 000 rev/min for 5 minutes. […] The filtered plasma is analyzed by anion-exchange HPLC. […]
Measurement kind: plasma concentration (nM)
Give bare numbers, in nM.

CC(=O)NC1C(OC2C(C(=O)O)OC(OC3C(COS(=O)(=O)O)OC(OC4C(C(=O)O)OC(OC5C(COS(=O)(=O)O)OC(OC6C(C(=O)O)OC(OC7C(COS(=O)(=O)O)OC(O)C(NS(=O)(=O)O)C7O)C(OS(=O)(=O)O)C6O)C(NS(=O)(=O)O)C5O)C(OS(=O)(=O)O)C4O)C(NS(=O)(=O)O)C3OS(=O)(=O)O)C(O)C2O)OC(COS(=O)(=O)O)C(OC2OC(C(=O)O)=CC(O)C2O)C1O (stereo not drawn) : 20
O=C(O)C1=CC(O)C(OS(=O)(=O)O)C(OC2C(COS(=O)(=O)O)OC(OC3C(C(=O)O)OC(OC4C(COS(=O)(=O)O)OC(OC5C(C(=O)O)OC(OC6C(COS(=O)(=O)O)OC(O)C(NS(=O)(=O)O)C6O)C(OS(=O)(=O)O)C5O)C(NS(=O)(=O)O)C4O)C(OS(=O)(=O)O)C3O)C(NS(=O)(=O)O)C2O)O1 (stereo not drawn) : 0

Field: next molecule
Record O=C(O)C1=CC(O)C(OS(=O)(=O)O)C(OC2C(COS(=O)(=O)O)OC(O)C(NS(=O)(=O)O)C2O)O1 (stereo not drawn) , field plasma concentration: 10
